Reported pIC50 values for the following compounds.
biological target: GIRK1/4 (Homo sapiens (Human), UniProt P48544+P48549); test: GIRK1/4 inhibition, Quattro (IonWorks) population patch clamp, inward potassium current in GIRK 1/4 HEK293 stable cells (test assay No. 1); settings: percentage of current inhibition normalized to DMSO-only control
Sequence (P48549 whole entry): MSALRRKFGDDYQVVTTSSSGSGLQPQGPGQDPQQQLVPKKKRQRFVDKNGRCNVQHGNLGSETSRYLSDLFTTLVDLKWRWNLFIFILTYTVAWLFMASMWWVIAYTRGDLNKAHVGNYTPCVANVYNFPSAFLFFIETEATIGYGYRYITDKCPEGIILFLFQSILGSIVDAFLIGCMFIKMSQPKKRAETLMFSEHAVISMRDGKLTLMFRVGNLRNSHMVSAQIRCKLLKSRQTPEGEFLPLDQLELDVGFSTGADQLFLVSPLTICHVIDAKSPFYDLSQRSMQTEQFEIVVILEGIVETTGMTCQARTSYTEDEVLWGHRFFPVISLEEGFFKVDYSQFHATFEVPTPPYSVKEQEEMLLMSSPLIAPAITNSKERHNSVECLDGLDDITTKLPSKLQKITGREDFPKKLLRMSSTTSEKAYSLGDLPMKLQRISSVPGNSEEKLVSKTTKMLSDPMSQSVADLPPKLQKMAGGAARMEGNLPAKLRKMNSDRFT
Sequence (P48544 whole entry): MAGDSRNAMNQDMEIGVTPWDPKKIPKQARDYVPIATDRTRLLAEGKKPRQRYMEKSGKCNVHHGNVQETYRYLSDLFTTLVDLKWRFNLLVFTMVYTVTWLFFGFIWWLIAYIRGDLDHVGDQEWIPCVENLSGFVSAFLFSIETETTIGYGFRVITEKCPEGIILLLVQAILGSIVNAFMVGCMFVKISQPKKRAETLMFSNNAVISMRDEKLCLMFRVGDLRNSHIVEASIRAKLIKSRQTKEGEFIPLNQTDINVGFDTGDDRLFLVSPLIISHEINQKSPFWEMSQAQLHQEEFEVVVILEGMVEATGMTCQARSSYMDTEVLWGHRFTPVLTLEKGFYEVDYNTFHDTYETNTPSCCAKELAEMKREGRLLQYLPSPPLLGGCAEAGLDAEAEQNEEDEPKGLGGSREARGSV
pIC50: −log10 of the molar value.
measuredEndpoint: pIC50

[
  {
    "compound": "O=c1cc(CO)n(-c2c(Cl)cccc2Cl)c2c(Cl)cnc(OCCOCCOCCOCCO)c12 [Example 7]",
    "measuredEndpoint": "pIC50",
    "recordedNumber": 6.37
  },
  {
    "compound": "O=c1cc(CO)n(-c2c(Cl)cccc2Cl)c2c(Cl)cnc(OC[C@H](O)CO)c12 [Example 2]",
    "measuredEndpoint": "pIC50",
    "recordedNumber": 6.80
  },
  {
    "compound": "Cc1cc(=O)c2c(N[C@@H]3COC[C@H]3O)ncc(Cl)c2n1-c1c(Cl)cc(C#N)cc1Cl [Example 43]",
    "measuredEndpoint": "pIC50",
    "recordedNumber": 7.59
  },
  {
    "compound": "O=c1cc(CO)n(-c2c(Cl)cccc2Cl)c2c(Cl)cnc(CCC(O)CO)c12 (single isomer, unassigned) [Example 77]",
    "measuredEndpoint": "pIC50",
    "recordedNumber": 6.44
  }
]

====

molecular target: GIRK1/4 (Homo sapiens (Human), UniProt P48544+P48549); assay: GIRK1/4 inhibition, Quattro (IonWorks) population patch clamp, inward potassium current in GIRK 1/4 HEK293 stable cells (test assay No. 1); conditions: percentage of current inhibition normalized to DMSO-only control

[
  {
    "molecule": "COCCOCCOCCOCCOCCOCCOc1ncc(Cl)c2c1c(=O)cc(C)n2-c1c(Cl)cccc1Cl [Example 15]",
    "displayUnit": "nM",
    "IC50": 25
  },
  {
    "molecule": "O=c1cc(CO)n(-c2c(Cl)cc(F)cc2Cl)c2c(Cl)cnc(OCCO)c12 [Example 61]",
    "displayUnit": "nM",
    "IC50": 68
  },
  {
    "molecule": "O=c1cc(CO)n(-c2c(Cl)cccc2Cl)c2c(Cl)cnc(OCCO)c12 [Example 12]",
    "displayUnit": "nM",
    "IC50": 36
  },
  {
    "molecule": "CS(=O)(=O)CCNc1ncc(Cl)c2c1c(=O)cc(CO)n2-c1c(Cl)cccc1Cl [Example 51]",
    "displayUnit": "nM",
    "IC50": 41
  },
  {
    "molecule": "CC(C)(O)C(O)COc1ncc(Cl)c2c1c(=O)cc(CO)n2-c1c(Cl)cccc1Cl (stereo not drawn) [Example 4]",
    "displayUnit": "nM",
    "IC50": 141
  },
  {
    "molecule": "O=c1cc(CO)n(-c2c(Cl)cccc2Cl)c2c(Cl)cnc(C(O)CO)c12 (single isomer, unassigned) [Example 83]",
    "displayUnit": "nM",
    "IC50": 278
  },
  {
    "molecule": "Cc1cc(=O)c2c(NOCCO)ncc(Cl)c2n1-c1c(Cl)cc(C#N)cc1Cl [Example 44]",
    "displayUnit": "nM",
    "IC50": 56
  },
  {
    "molecule": "Cc1cc(=O)c2c(OCC(C)(C)O)ncc(Cl)c2n1-c1c(Cl)cccc1Cl [Example 42]",
    "displayUnit": "nM",
    "IC50": 15
  },
  {
    "molecule": "Cc1cc(=O)c2c(OCCOCCOCCOCCO)ncc(Cl)c2n1-c1c(Cl)cccc1Cl [Example 30]",
    "displayUnit": "nM",
    "IC50": 25
  },
  {
    "molecule": "Cc1cc(=O)c2c(OCCNS(C)(=O)=O)ncc(Cl)c2n1-c1c(Cl)cccc1Cl [Example 36]",
    "displayUnit": "nM",
    "IC50": 9
  },
  {
    "molecule": "Cc1cc(=O)c2c(OCCOCCOCCOCCOCCOCCO)ncc(Cl)c2n1-c1c(Cl)cccc1Cl [Example 19]",
    "displayUnit": "nM",
    "IC50": 98
  },
  {
    "molecule": "Cc1cc(=O)c2c(OCCO)ncc(Cl)c2n1-c1c(Cl)cc(C#CCN2CCOCC2)cc1Cl [Example 91]",
    "displayUnit": "nM",
    "IC50": 40
  },
  {
    "molecule": "Cc1cc(=O)c2c(OCCOCCOCCOCCO)ncc(Cl)c2n1-c1c(Cl)cccc1C#N [Example 21]",
    "displayUnit": "nM",
    "IC50": 154
  },
  {
    "molecule": "CC1(C)OCC(COc2ncc(Cl)c3c2c(=O)cc(CO)n3-c2c(Cl)cccc2Cl)O1 (stereo not drawn) [Example 57]",
    "displayUnit": "nM",
    "IC50": 32
  },
  {
    "molecule": "Cc1cc(=O)c2c(OCCOCCOCCOCCOCCO)ncc(Cl)c2n1-c1c(Cl)cccc1Cl [Example 14]",
    "displayUnit": "nM",
    "IC50": 52
  },
  {
    "molecule": "Cc1cc(=O)c2c(OCC3COC3)ncc(Cl)c2n1-c1c(Cl)cccc1Cl [Example 50]",
    "displayUnit": "nM",
    "IC50": 11
  },
  {
    "molecule": "O=c1cc(CO)n(-c2c(Cl)cccc2Cl)c2c(Cl)cnc(CCC(O)CO)c12 (single isomer, unassigned) [Example 76]",
    "displayUnit": "nM",
    "IC50": 355
  },
  {
    "molecule": "Cc1cc(=O)c2c(NC[C@H](O)CO)ncc(Cl)c2n1-c1c(Cl)cccc1Cl [Example 39]",
    "displayUnit": "nM",
    "IC50": 15
  },
  {
    "molecule": "N#Cc1cc(=O)c2c(OCC(O)CO)ncc(Cl)c2n1-c1c(Cl)cccc1Cl (stereo not drawn) [Example 63]",
    "displayUnit": "nM",
    "IC50": 16
  },
  {
    "molecule": "Cc1cc(=O)c2c(-n3cncn3)ncc(Cl)c2n1-c1c(Cl)cccc1Cl [Example 71]",
    "displayUnit": "nM",
    "IC50": 176
  },
  {
    "molecule": "Cc1cc(=O)c2c(OCCOCCOCCOCCOCCOCCO)ncc(Cl)c2n1-c1c(Cl)cc(F)cc1Cl [Example 24]",
    "displayUnit": "nM",
    "IC50": 253
  },
  {
    "molecule": "Cc1cc(=O)c2c(N3CC(O)C3)cncc2n1-c1c(Cl)cc(C#N)cc1Cl [Example 29]",
    "displayUnit": "nM",
    "IC50": 505
  },
  {
    "molecule": "Cc1cc(=O)c2c(Nc3nnnn3C)ncc(Cl)c2n1-c1c(Cl)cccc1Cl [Example 45]",
    "displayUnit": "nM",
    "IC50": 149
  },
  {
    "molecule": "O=c1cc(CO)n(-c2c(Cl)cccc2Cl)c2c(Cl)cnc(CC(O)CO)c12 (stereo not drawn) [Example 78]",
    "displayUnit": "nM",
    "IC50": 352
  },
  {
    "molecule": "CCc1cc2c(c(OCC(O)CO)n1)c(=O)cc(C)n2-c1c(Cl)cccc1CC (stereo not drawn) [Example 67]",
    "displayUnit": "nM",
    "IC50": 168
  },
  {
    "molecule": "Cc1cc(=O)c2c(C(C)(O)C(=O)CO)ncc(Cl)c2n1-c1c(Cl)cccc1Cl (stereo not drawn) [Example 89]",
    "displayUnit": "nM",
    "IC50": 24
  },
  {
    "molecule": "N#Cc1cccc(Cl)c1-n1c(C2CC2)cc(=O)c2c(OCC(O)CO)ncc(Cl)c21 (stereo not drawn) [Example 55]",
    "displayUnit": "nM",
    "IC50": 54
  },
  {
    "molecule": "O=c1cc(CO)n(-c2c(Cl)cccc2Cl)c2c(Cl)cnc(C(O)CO)c12 (single isomer, unassigned) [Example 84]",
    "displayUnit": "nM",
    "IC50": 116
  },
  {
    "molecule": "O=c1cc(CO)n(-c2c(Cl)cccc2Cl)c2c(Cl)cnc(OCC(O)CO)c12 (stereo not drawn) [Example 3]",
    "displayUnit": "nM",
    "IC50": 131
  },
  {
    "molecule": "O=c1cc(CO)n(-c2c(Cl)cccc2Cl)c2c(Cl)cnc(OCC3COC3)c12 [Example 10]",
    "displayUnit": "nM",
    "IC50": 120
  },
  {
    "molecule": "Cc1cc(=O)c2c(OCC(O)C(O)CO)ncc(Cl)c2n1-c1c(Cl)cccc1Cl (stereo not drawn) [Example 26]",
    "displayUnit": "nM",
    "IC50": 31
  },
  {
    "molecule": "Cc1cc(=O)c2c(N3C[C@@H](O)[C@@H](O)C3)ncc(Cl)c2n1-c1c(Cl)cccc1Cl [Example 33]",
    "displayUnit": "nM",
    "IC50": 100
  },
  {
    "molecule": "CNc1cc2c(c(OCC(O)CO)n1)c(=O)cc(C)n2-c1c(Cl)cccc1Cl (stereo not drawn) [Example 65]",
    "displayUnit": "nM",
    "IC50": 390
  }
]

Source: patent US11530213B2
